Parameter 'readout' = MIC; parameter 'system' = E. aerogenes DSM-30053.

- Smiles Code: "CC(C)Oc1c(NC(=O)c2ccc(NC(=O)[C@H](CC(N)=O)NC(=O)c3ccc(NC(=O)c4ccc(C#N)cc4)cc3)cc2)ccc(C(=O)Nc2ccc(C(=O)O)cc2)c1O"
  MIC: "1 mg/L"
- Smiles Code: "CC(C)Oc1c(NC(=O)c2ccc(NC(=O)c3ccc(NC(=O)[C@H](CC(N)=O)NC(=O)c4ccc(NC(=O)c5ccc(C#N)cc5)cc4)cc3)c(OC(C)C)c2O)ccc(C(=O)O)c1O"
  MIC: "> 64 mg/L"
- Smiles Code: "CC(C)Oc1c(NC(=O)c2ccc(NC(=O)c3ccc(NC(=O)[C@H](CC(N)=O)NC(=O)c4ccc(NC(=O)c5ccc([N+](=O)[O-])cc5)cc4)cc3)c(OC(C)C)c2O)ccc(C(=O)O)c1O"
  MIC: "> 64 mg/L"
- Smiles Code: "C/C(=C\\c1ccc(O)cc1)C(=O)Nc1ccc(C(=O)N[C@@H](CC(N)=O)C(=O)Nc2ccc(C(=O)Nc3ccc(C(=O)Nc4ccc(C(=O)O)cc4)c(O)c3OC(C)C)cc2)cc1"
  MIC: "1 mg/L"
- Smiles Code: "CC(C)Oc1c(N)ccc(C(=O)Nc2ccc(C(=O)N[C@@H](CC(N)=O)C(=O)Nc3ccc(C(=O)Nc4ccc(C(=O)Nc5ccc(C(=O)O)cc5)c(O)c4OC(C)C)cc3)cc2)c1O"
  MIC: "> 64 mg/L"
- Smiles Code: "CC(C)Oc1c(NC(=O)c2ccc(NC(=O)[C@H](CC(N)=O)NC(=O)c3ccc(NC(=O)c4ccc([N+](=O)[O-])cc4)cc3)cc2)ccc(C(=O)Nc2ccc(C(=O)O)cc2)c1O"
  MIC: "> 64 mg/L"
